- assay_explanation: self-splicing fitness, log relative to wild type (ln ratio); higher = more splicing; Tetrahymena group I intron in knt gene, E. coli kanamycin selection, DiMSum; sequences stand for … in CUCUCU…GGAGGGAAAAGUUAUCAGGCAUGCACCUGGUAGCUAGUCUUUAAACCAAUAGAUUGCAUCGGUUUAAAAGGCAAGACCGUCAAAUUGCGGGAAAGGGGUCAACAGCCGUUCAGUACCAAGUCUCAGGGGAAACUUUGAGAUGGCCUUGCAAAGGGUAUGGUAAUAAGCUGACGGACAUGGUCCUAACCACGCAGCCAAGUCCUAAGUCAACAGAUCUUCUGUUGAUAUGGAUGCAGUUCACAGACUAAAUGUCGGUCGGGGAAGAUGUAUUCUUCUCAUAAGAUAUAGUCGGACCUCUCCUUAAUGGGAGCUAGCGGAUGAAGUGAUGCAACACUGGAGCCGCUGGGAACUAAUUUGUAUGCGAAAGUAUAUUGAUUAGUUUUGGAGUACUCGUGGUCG;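 further: selection with 25 µg/mL kanamycin versus none on LB agar overnight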
- condition_context: 37 °C
Task for the reader: assign each of the following sequences its reported self-splicing fitness (ln).
Give bare numbers.

Solved entries (count: 5):
- CUAUAGCAAUAUUACGUCUA: -3.16
- GUUCAGCAAUAUUACGACAA: -0.319
- UAUGAGCAAUAUUACGUUUU: -2.45
- GAAGAGCAAUAUUACGCUCU: -2.74
- CAGCAGCAAUAUUACGGGCU: -2.51

Value sought for every listed sequence: self-splicing fitness (ln).
1. GGACAGCAAUAUUACGGCUG
2. GGCCAGCAAUAUUACGUUCU
3. CCCUAGCAAUAUUACGUUCU
4. UUUCAGCAAUAUUACGGUAC
5. UCGUAGCAAUAUUACGGAUA
6. GACGAGCAAUAUUACGUGAC

Response:
1. -0.371
2. 0.108
3. -3.61
4. -2.1
5. -1.02
6. -1.48

Please give self-splicing fitness (ln) for each item listed below.
1. GCAAAGCAAUAUUACGUGUA
2. UUUUAGCAAUAUUACGGGUA
3. GCGCAGCAAUAUUACGUGGU
4. ACGGAGCAAUAUUACGGCAU
5. GCAUAGCAAUAUUACGGGAA

Response:
1: -0.701; 2: -0.417; 3: -1.02; 4: -1.53; 5: -0.707

State the recorded self-splicing fitness (ln) for every item in the following list.
1. UGCCAGCAAUAUUACGACGG
2. UAUAAGCAAUAUUACGCUCC
3. GCGCAGCAAUAUUACGCCAC
4. GGUCAGCAAUAUUACGUCUG

Response:
[-1.42, -1.02, -1.17, -0.321]

----------
- assay_explanation: self-splicing fitness, log relative to wild type (ln ratio); higher = more splicing; Tetrahymena group I intron in knt gene, E. coli kanamycin selection, DiMSum; sequences stand for … in CUCUCU…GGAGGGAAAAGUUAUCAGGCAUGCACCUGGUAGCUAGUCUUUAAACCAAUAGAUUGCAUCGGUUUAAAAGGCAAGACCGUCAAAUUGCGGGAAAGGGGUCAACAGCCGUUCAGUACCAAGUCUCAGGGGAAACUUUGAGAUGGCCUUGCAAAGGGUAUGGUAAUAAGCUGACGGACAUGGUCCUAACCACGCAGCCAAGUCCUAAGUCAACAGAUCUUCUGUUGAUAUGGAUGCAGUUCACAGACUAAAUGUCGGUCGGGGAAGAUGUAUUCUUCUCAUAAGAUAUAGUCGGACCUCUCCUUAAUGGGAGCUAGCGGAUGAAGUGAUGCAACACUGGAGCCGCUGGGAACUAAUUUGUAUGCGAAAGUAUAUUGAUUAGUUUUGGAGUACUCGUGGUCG
- condition_context: 37 °C
Kind request: treat -2 as inclusive, so self-splicing fitness (ln) at -2 or higher is y, anything lower is n.

• AAUUAGCAAUAUUACGUAAA = y
• AUCUAGCAAUAUUACGCCAA = y
• CAAAAGCAAUAUUACGGACG = y
• ACACAGCAAUAUUACGGUAG = n
• GGCAAGCAAUAUUACGGCUG = y
• UUGAAGCAAUAUUACGGGUG = y

Prompt: I'd appreciate it if you could say whether `UUACAGCAAUAUUACGGUUC` has self-splicing fitness (ln) at least equal to -2.
Response: y

Prompt: Check if self-splicing fitness (ln) >= -2 (inclusive). Item: `UUAUAGCAAUAUUACGUGGA`
Response: y

Prompt: Threshold query (self-splicing fitness (ln) >= -2) on `AACUAGCAAUAUUACGAUAC`
Response: y

Prompt: Please check the record `UUAAAGCAAUAUUACGACAU` and state if its self-splicing fitness (ln) is at or above -2.
Response: y

Prompt: Please tell me: is the sequence `UGAAAGCAAUAUUACGCCAU` at or over -2 in terms of self-splicing fitness (ln)?
Response: n
